The following compounds are shown together with reported AMARE, damage to plant values.
System: Amaranthus retroflexus
Test: Example B2 herbicidal action, post-emergence, pots in glasshouse
Assay type: in vivo
Test parameters: 250 g/ha, evaluated after 13 days, 10=total damage to plant, 0=no damage to plant
// return a plain number; no unit text

Annotate the compound `CC(C)C(=O)Oc1c(-c2ccc(C(F)(F)F)nc2Cl)c(=O)n(CC(F)F)c2nccnc12` with its measured AMARE, damage to plant.
9

Annotate the compound `CC(C)(C)C(=O)Oc1c(-c2cnc(Cl)cc2Cl)c(=O)n(CC(F)F)c2nccnc12` with its measured AMARE, damage to plant.
10

Annotate the compound `CC(C)C(=O)Oc1c(-c2c(C(F)(F)F)nn(C)c2OC(F)F)c(=O)[nH]c2nccnc12` with its measured AMARE, damage to plant.
3

Moving on to the next compound.
Annotate the compound `Cn1c(=O)c(-c2ccc(Cl)nc2Cl)c(OC(=O)C(C)(C)C)c2nccnc21` with its measured AMARE, damage to plant.
2

---

Tested on: Setaria faberi
Test: Example B2 herbicidal action, pre-emergence, pots in glasshouse
Type: in vivo
Test parameters: 1000 g/ha, evaluated after 13 days, 10=total damage to plant, 0=no damage to plant
Assay readout: SETFA, damage to plant
// return a plain number; no unit text

Example compounds with recorded SETFA, damage to plant:
Report SETFA, damage to plant from Setaria faberi testing of CC(C)C(=O)Oc1c(-c2nn(C)nc2C(F)(F)F)c(=O)[nH]c2nccnc12 [Compound B28]
0

Report SETFA, damage to plant from Setaria faberi testing of CC(C)C(=O)Oc1c(-c2c(C(F)(F)F)nn(C)c2OC(F)F)c(=O)n(CC(F)F)c2nccnc12 [Compound B24]
7

Report SETFA, damage to plant from Setaria faberi testing of Cn1nc(C(F)(F)F)c(-c2c(O)c3nccnc3n(CC(F)F)c2=O)c1OC(F)F [Compound B25]
8

Report SETFA, damage to plant from Setaria faberi testing of CC(C)(C)C(=O)Oc1c(-c2ccc(Cl)nc2Cl)c(=O)n(CC(F)F)c2nccnc12 [Compound A16]
0

Report SETFA, damage to plant from Setaria faberi testing of CC(C)C(=O)Oc1c(-c2nn(C)nc2C(F)(F)F)c(=O)n(CC(F)F)c2nccnc12 [Compound B29]
3

Report SETFA, damage to plant from Setaria faberi testing of Cn1nc(-c2c(O)c3nccnc3n(CC(F)F)c2=O)c(C(F)(F)F)n1 [Compound B30]
2

Next:
Report SETFA, damage to plant from Setaria faberi testing of CC(C)(C)C(=O)Oc1c(-c2ccc(Cl)nc2Cl)c(=O)[nH]c2nccnc12 [Compound A14]
2

Report SETFA, damage to plant from Setaria faberi testing of CCn1c(=O)c(-c2c(Cl)cncc2Cl)c(OC(=O)C(C)(C)C)c2nccnc21 [Compound A10]
1

---

Test system: Setaria faberi
Test: Example B2 herbicidal action, pre-emergence, pots in glasshouse
Type: in vivo
Test parameters: 1000 g/ha, evaluated after 13 days, 10=total damage to plant, 0=no damage to plant
The threshold is 2. Values of SETFA, damage to plant beneath it are tagged Condition met; values meeting or exceeding it are tagged Condition not met.

Please review the entries below; each comes with its answer.
Check if SETFA, damage to plant falls below 2 for `CC(C)(C)C(=O)Oc1c(-c2c(Cl)cncc2Cl)c(=O)n(CC(F)F)c2nccnc12` .
Condition not met

Check if SETFA, damage to plant falls below 2 for `CC(C)(C)C(=O)Oc1c(-c2c(Cl)ccnc2Cl)c(=O)n(CC(F)F)c2nccnc12` .
Condition not met

Check if SETFA, damage to plant falls below 2 for `Cn1c(=O)c(-c2c(Cl)cncc2Cl)c(OC(=O)C(C)(C)C)c2nccnc21` .
Condition met

Next:
Check if SETFA, damage to plant falls below 2 for `Cn1nc(C(F)(F)F)c(-c2c(O)c3nccnc3[nH]c2=O)c1OC(F)F` .
Condition met

Check if SETFA, damage to plant falls below 2 for `O=c1c(-c2cnc(Cl)cc2Cl)c(O)c2nccnc2n1CC(F)F` .
Condition met

Check if SETFA, damage to plant falls below 2 for `O=c1c(-c2c(Cl)cncc2Cl)c(O)c2nccnc2n1CC(F)F` .
Condition not met
